- Tested on: S6K1;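 also: KINOMEscan kinase panel screen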
- recorded.conditions: concentration: 1 μM, replicates: in singlicate; n = 1
Each entry below carries its recorded %Inh.
Please state the figure in %; there is no need to write the unit.

[[record]]
molecule = "Fc1ccc(-c2nn3c(OCC(F)(F)F)cccc3c2-c2ccncc2)cc1"
unit = "%"
assay_value = 0

[[record]]
molecule = "COc1ccc(COc2cc(-n3cnc4ccccc43)sc2C(N)=O)cc1"
unit = "%"
assay_value = 0

[[record]]
molecule = "COc1ccc(Nc2nccc(N3CCC(NC(=O)Nc4cccc(C(C)=O)c4)C3)n2)cc1 (stereo not shown)"
unit = "%"
assay_value = 9


Entry Cc1nnc(-c2ccc3ncc(-c4ccc(S(C)=O)cc4)n3c2)o1 (stereo not shown) ; assay system S6K1; %Inh recorded at 0
